system: c-Cbl (Homo sapiens (Human))
Sequence (P22681 47-435): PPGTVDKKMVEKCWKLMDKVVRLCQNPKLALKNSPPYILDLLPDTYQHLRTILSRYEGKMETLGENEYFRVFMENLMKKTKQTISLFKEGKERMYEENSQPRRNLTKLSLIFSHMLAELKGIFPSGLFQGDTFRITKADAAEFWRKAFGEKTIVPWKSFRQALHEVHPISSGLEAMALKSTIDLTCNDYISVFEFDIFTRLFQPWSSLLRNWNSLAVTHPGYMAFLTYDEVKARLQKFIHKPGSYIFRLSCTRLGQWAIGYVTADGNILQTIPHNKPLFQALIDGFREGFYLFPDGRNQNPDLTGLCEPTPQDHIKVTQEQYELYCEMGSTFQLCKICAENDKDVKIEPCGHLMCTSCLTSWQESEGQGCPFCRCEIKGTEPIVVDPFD
assay.protocol: C-Cbl LCK Ub TR-FRET assay (c-cbl Lck HTRF)
Assay type: biochemical
applied.conditions: C-cbl Lck HTRF IC50 relative to Cbl-b Lck HTRF IC50
value.kind: (fold-selectivity)

Some solved entries appear below for comparison.
compound | value.kind | result
CC(=O)N1CCN(Cc2cc3c(c(C(F)(F)F)c2)CN(c2cccc(C4([C@H](F)c5nncn5C)COC4)c2)C3=O)[C@@H](C(C)C)C1 | (fold-selectivity) | 3.0x
Cn1cnnc1[C@H](F)[C@@](C)(F)c1cccc(N2Cc3c(cc(CN4CCC5(CC5)C4)cc3C(F)(F)F)C2=O)c1 | (fold-selectivity) | 3.4x
C=CC(=O)Nc1cc(C2(Cc3nncn3C)CCC2)cc(N2Cc3c(cc(CN4CCN(C)C[C@@H]4C(C)C)cc3C(F)(F)F)C2=O)n1 | (fold-selectivity) | (1.4x)
Cn1cnnc1CC1(c2cc(NCC3CCNCC3)nc(N3Cc4c(cc(CNC5(C)CCC5)cc4C(F)(F)F)C3=O)c2)CCC1 | (fold-selectivity) | (0.68x)
Cn1cnnc1CC1(c2cc(C3CCC3)nc(N3Cc4c(cccc4C(F)(F)F)C3=O)c2)COC1 | (fold-selectivity) | (1.4x)

Prompt: Given CN1CC2CC(C1)N2Cc1cc2c(c(C(F)(F)F)c1)CN(c1cccc(C3(Cc4nncn4C)CC(F)(F)C3)c1)C2=O , state its recorded (fold-selectivity).
Response: (1.1x)

Prompt: Would you kindly share the measured (fold-selectivity) for Cn1cnnc1[C@H](F)C1(c2cccc(N3Cc4c(cc([C@H](N)C5CCC5)cc4C(F)(F)F)C3=O)c2)COC1 ?
Response: (1.1x)

Prompt: Record request: (fold-selectivity) value, item CC(C)[C@H]1CN(C)CCN1Cc1cc2c(c(C(F)(F)F)c1)CN(c1cccc([C@]3([C@H](F)c4nncn4C)CCO3)c1)C2=O (single isomer, unassigned)
Response: (1.4x)

Prompt: So what's the measured (fold-selectivity) for this one? CC(C)[C@H]1CN(CC(F)(F)F)CCN1Cc1cc2c(c(C(F)(F)F)c1)CN(c1cccc(C3([C@H](F)c4nncn4C)COC3)c1)C2=O
Response: 13 x

Prompt: Entry Cn1cnnc1[C@@H](F)C1(c2cccc(N3Cc4c(cc(CN5CCC(F)(CO)CC5)cc4C(F)(F)F)C3=O)c2)COC1 has what (fold-selectivity)?
Response: 3.3x

Prompt: Entry CN(C)Cc1cccc(CNc2cc(C3(Cc4nncn4C)CCC3)cc(N3Cc4c(cc(CNC5(C)CCC5)cc4C(F)(F)F)C3=O)n2)c1 has what (fold-selectivity)?
Response: (1.1x)

Prompt: What value of measured (fold-selectivity) is listed for Cn1cnnc1[C@@H](F)C1(c2cccc(N3Cc4c(cc(CN5CCC(C)(O)CC5)cc4C(F)(F)F)C3=O)c2)COC1 ?
Response: 1.9x

Prompt: Request the reported (fold-selectivity) associated with C[C@H]1CN(Cc2cc3c(c(C(F)(F)F)c2)CN(c2cccc(C4([C@@H](F)c5nncn5C)COC4)c2)C3=O)CCCO1
Response: 1.1x

Prompt: Given the entry CC(C)Nc1cc(N2Cc3c(cc(CN4CCN(C)C[C@@H]4C(C)C)cc3C(F)(F)F)C2=O)cc(C2(Cc3nncn3C)CCC2)c1 , report its measured (fold-selectivity).
Response: (0.68x)

Prompt: What does the record list as (fold-selectivity) for Cn1cnnc1[C@H](F)C1(c2cccc(N3Cc4c(cc(CN5CC(C)(C)C5)cc4C(F)(F)F)C3=O)c2)COC1 ?
Response: 2.1x

Prompt: Quick one: (fold-selectivity) of COCCN1CCC(Nc2cc(C3(Cc4nncn4C)CCC3)cc(N3Cc4c(cc(CNC5(C)CCC5)cc4C(F)(F)F)C3=O)n2)CC1 ?
Response: (1.1x)

Prompt: Which (fold-selectivity) is listed for Cn1cnnc1[C@@H](F)C1(c2cccc(N3Cc4c(cc(CN5CC6(CCO6)C5)cc4C(F)(F)F)C3=O)c2)COC1 ?
Response: 2.8x
